Assay: Pharmacokinetic behaviour of mesterolone in combination with estradiol valerate, single oral application, 24 healthy young male test persons
Settings: human, in vivo; mesterolone 25 mg tablet + EV 1 mg lozenge, single oral
reported-property: Tmax (h)

compound: C[C@H]1CC(=O)C[C@@H]2CC[C@H]3[C@@H]4CC[C@H](O)[C@@]4(C)CC[C@@H]3[C@]21C [mesterolone]
measured-number: 8.9

###

Experiment: Pharmacokinetic behaviour of mesterolone in combination with estradiol valerate, single oral application, 24 healthy young male test persons
Conditions: human, in vivo; 60 h after single oral mesterolone 25 mg + EV 1 mg

chem-smiles: C[C@H]1CC(=O)C[C@@H]2CC[C@H]3[C@@H]4CC[C@H](O)[C@@]4(C)CC[C@@H]3[C@]21C
concentration at 60 h [ng/mL]: 0.48

###

Assay: Pharmacokinetic behaviour of DHT (patch) in combination with estriol gel, transdermal, 18 healthy young male test persons
Conditions: human, in vivo, topical or ocular, 5 mg

chem-smiles: C[C@]12CC[C@@H]3c4ccc(O)cc4CC[C@H]3[C@@H]1C[C@@H](O)[C@@H]2O
Cmax [pg/mL]: 8.82

###

Assay: Pharmacokinetic behaviour of mesterolone in combination with estradiol valerate, single oral application, 24 healthy young male test persons
Details: human, in vivo; mesterolone 25 mg tablet + EV 1 mg lozenge, single oral, 60 h
Experimental: Pharmacokinetic Behaviour of Mesterolone in Combination with Estradiol Valerate (EV) In a randomized study, the kinetic behaviour of mesterolone (25 mg tablet) in combination with EV (1 mg lozenge) after a single oral application was examined in 24 healthy young male test persons. Each test person was administered mesterolone and EV after a monitored fasting period of 12 hours. After the application, 18 blood samples were taken from each test person over a period of 60 hours.
reported-property: AUC at 60 h (ng·h/mL)

chem-smiles: C[C@H]1CC(=O)C[C@@H]2CC[C@H]3[C@@H]4CC[C@H](O)[C@@]4(C)CC[C@@H]3[C@]21C
measured-number: 177

###

Assay: Pharmacokinetic behaviour of mesterolone in combination with estradiol valerate, single oral application, 24 healthy young male test persons
Settings: human, in vivo; mesterolone 25 mg tablet + EV 1 mg lozenge, single oral
reported-property: half-life (h)

chem-smiles: C[C@H]1CC(=O)C[C@@H]2CC[C@H]3[C@@H]4CC[C@H](O)[C@@]4(C)CC[C@@H]3[C@]21C
output-unit: h
measured-number: 13.2

# credit: patent US5855905A
